// provenance: patent US20230295297A1

TEST SYSTEM: T1, recombinant human TREM2-DAP12 fusion protein expressed on cells (human)
T1 construct: also called HEKhT2; 293 cells expressing human TREM2; not shown: None of these limits is stated
T1 chain: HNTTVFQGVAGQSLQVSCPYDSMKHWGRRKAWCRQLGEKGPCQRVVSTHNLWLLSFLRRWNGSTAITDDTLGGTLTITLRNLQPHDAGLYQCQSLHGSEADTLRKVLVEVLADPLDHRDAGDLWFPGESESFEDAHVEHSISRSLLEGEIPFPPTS
METHOD SUMMARY: FACS, HEKhT2 cells
We begin with a simple list: items and their reported MFI HEKhT2.
Remember to quote the unit after the number.

- 9G1 (antibody, IgG1, V domains shown, mIgG1) VH: QVQLQQSGAELVKPGASVKLSCKASGYIFTTYWIHWVKQRPGRGPEWIGRIDPNNGDTNYNEKFKTKATLTVDKPSSTADMQLSSLTSEDSAVYYCVMTGTDFDYWGQGTTLTVSS VL: DVLMTQTPLSLPVSLGDQASISCRFSQSLVHSNGNTYLHWYLQKPGQSPKLLIYKVSNRFSGVPDRFSGSGSGTDFTLRISGVEAEDLGVYFCSQSTRVPPTFGGGTKLEIK: 3080 MFI
- 3A2 (antibody, IgG1, V domains shown, mIgG1; variable domains built FR1-HVR1-FR2-HVR2-FR3-HVR3-FR4) VH: QVQLQQSGAELVKPGASVKMSCKTSGYPFSNFWITWVKQRPGQGLVWIGDIYPGSDNSNYNEKFKTKATLTVDTSSSTAYMHLSSLTSEDSAVYFCAREAYYTNPGFAYWGQGTLVTVST VL: DVVMTQTPLSLPVSLGDQASISCRSSQTIIHSNGNTYLEWYLRKPGQSPKLLIYKVSNRFSGVPDRFSGSGSGTDFTLKISRVEAEDLGVYYCFQGSHVPYTFGGGTELEIK: 7300 MFI

Task: Query (binder): 10A9 (antibody, IgG1, V domains shown, mIgG1) VH: QVQLQQSGAEVVKPGASVKMSCKTSGYPFSNFWITWVKQRPGQGLVWIGDIYPGSDNRNFNERFKTKATLTVDTSSSTAYMHLSSLTSEDSAVYFCAREAYYTNPGFAYWGQGTLVTVSA VL: DVVMTQTPLSLPVSLGDQASISCRSSQTIIHSNGNTYLEWYLRKPGQSPKLLIYKVSNRFCGVPDRFSGSGSGTDFTLKISRVEAEDLGVYYCFQGSHVPYTFGGGTELEIK ; field requested: MFI HEKhT2
Output: 11900 MFI
